# system_tested: human LPA1 (Homo sapiens)
# Construct: the full-length cDNA for human LPA1 was obtained by PCR of the reverse transcription reaction
# Sequence (Q92633 whole entry): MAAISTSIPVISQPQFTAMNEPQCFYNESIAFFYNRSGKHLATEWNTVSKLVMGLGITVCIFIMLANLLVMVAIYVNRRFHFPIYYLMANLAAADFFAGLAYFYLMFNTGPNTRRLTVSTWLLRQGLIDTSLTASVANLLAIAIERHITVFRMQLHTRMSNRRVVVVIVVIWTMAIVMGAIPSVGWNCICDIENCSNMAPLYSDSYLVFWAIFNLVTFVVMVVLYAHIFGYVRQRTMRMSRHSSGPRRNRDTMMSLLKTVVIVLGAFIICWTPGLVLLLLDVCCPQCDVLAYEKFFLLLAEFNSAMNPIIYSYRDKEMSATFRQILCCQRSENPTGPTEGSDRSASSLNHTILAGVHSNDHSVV
# method_summary: LPA1 calcium flux assay (HLPA1 Ca Flux)
# experimental_context: Human LPA1 expressing CHO cells, stimulated with 10 nM LPA
Please respond with reported IC50 for every item in the list.

Task item: Give the measured IC50 of Cc1noc(-c2ccc(-c3ccc(C(C)(C)C(=O)O)cc3)cc2)c1NC(=O)O[C@H](C)c1ccccc1Cl .
Reply: < 300 nM

Task item: Give the measured IC50 of COc1ccc(CC(=O)O)cc1Cc1ccc(-c2onc(C)c2NC(=O)OC(C)c2ccccc2Cl)cc1 (stereo not shown) .
Reply: 300 to 1000 nM

Task item: Give the measured IC50 of Cc1noc(-c2csc(-c3ccc(CC(=O)O)cc3)n2)c1NC(=O)O[C@H](C)c1ccccc1F .
Reply: 1000 to 50000 nM

Task item: Give the measured IC50 of Cc1noc(-c2ccc(-c3ccc(CC(=O)O)cc3)c(Cl)c2)c1NC(=O)O[C@H](C)c1ccccc1Cl .
Reply: < 300 nM

Task item: Give the measured IC50 of COc1ncc(CC(=O)O)cc1-c1cccc(-c2onc(C)c2NC(=O)OC(C)c2ccccc2Cl)c1 (stereo not shown) .
Reply: 1000 to 50000 nM

Task item: Give the measured IC50 of CC(=O)NC(=N)Cc1ccc(-c2ccc(-c3onc(C)c3NC(=O)O[C@H](C)c3ccccc3F)cc2)cc1 .
Reply: < 300 nM

Task item: Give the measured IC50 of Cc1noc(-c2ccc(-c3ccc(CC#N)cc3)cc2)c1NC(=O)O[C@H](C)c1ccccc1Cl .
Reply: < 300 nM
